# Tested on: Erythrocyte
# assay_info: Haemolytic activity in human erythrocytes assessed as lowest concentration causing 5% hemolysis after 1 hr
# Format: ADME, cell-based
Where a SMILES comes first, the peptide text is derived from it.
measurement_name: MHC

Query string: Returns the measured MHC for the input compound. Input: CC(C)C[C@H](NC(=O)[C@H](CCCNC(=N)N)NC(=O)[C@H](CCCCN)NC(=O)[C@H](CCCNC(=N)N)NC(=O)[C@@H](NC(=O)[C@H](CCCCN)NC(=O)[C@H](CCCCN)NC(=O)[C@H](CCCNC(=N)N)NC(=O)[C@H](CC(C)C)NC(=O)[C@H](CCCNC(=N)N)NC(=O)[C@@H](N)CCCNC(=N)N)[C@@H](C)O)C(=O)N[C@@H](CCCCN)C(N)=O (H-RRLRKKTRKRLK-NH2)
Result string: > 128 µM

Query string: Returns the measured MHC for the input compound. Input: CC(C)C[C@H](NC(=O)[C@H](CCCNC(=N)N)NC(=O)[C@H](Cc1c[nH]c2ccccc12)NC(=O)[C@H](CCCNC(=N)N)NC(=O)[C@H](CC(C)C)NC(=O)[C@H](CCCNC(=N)N)NC(=O)[C@H](Cc1c[nH]c2ccccc12)NC(=O)[C@H](CCCNC(=N)N)NC(=O)[C@H](CC(C)C)NC(=O)[C@H](CCCNC(=N)N)NC(=O)[C@@H](N)Cc1c[nH]c2ccccc12)C(=O)N[C@@H](CCCNC(=N)N)C(N)=O (H-WRLRWRLRWRLR-NH2)
Result string: > 128 µM

Query string: Returns the measured MHC for the input compound. Input: CC(C)[C@H](NC(=O)[C@H](CCCNC(=N)N)NC(=O)[C@H](Cc1c[nH]c2ccccc12)NC(=O)[C@H](CCCNC(=N)N)NC(=O)[C@@H](NC(=O)[C@H](CCCNC(=N)N)NC(=O)[C@H](Cc1c[nH]c2ccccc12)NC(=O)[C@H](CCCNC(=N)N)NC(=O)[C@@H](NC(=O)[C@H](CCCNC(=N)N)NC(=O)[C@@H](N)Cc1c[nH]c2ccccc12)C(C)C)C(C)C)C(=O)N[C@@H](CCCNC(=N)N)C(N)=O (H-WRVRWRVRWRVR-NH2)
Result string: > 128 µM

----------
# Tested on: Staphylococcus aureus
# assay_info: Antibacterial activity against Staphylococcus aureus ATCC 25923 incubated for 18 to 24 hrs by broth microdilution method
# Type: functional
Where a SMILES comes first, the peptide text is derived from it.
measurement_name: MIC
Remember to put the unit after the number in your answer.

Query string: Returns the measured MIC for the input compound. Input: CC(C)C[C@H](NC(=O)[C@H](CCCCN)NC(=O)[C@H](Cc1c[nH]c2ccccc12)NC(=O)[C@H](CCCCN)NC(=O)[C@H](CC(C)C)NC(=O)[C@H](CCCCN)NC(=O)[C@H](Cc1c[nH]c2ccccc12)NC(=O)[C@H](CCCCN)NC(=O)[C@H](CC(C)C)NC(=O)[C@H](CCCCN)NC(=O)[C@@H](N)Cc1c[nH]c2ccccc12)C(=O)N[C@@H](CCCCN)C(N)=O (H-WKLKWKLKWKLK-NH2)
Result string: 2 µM

Query string: Returns the measured MIC for the input compound. Input: CC(C)C[C@H](NC(=O)[C@H](CCCNC(=N)N)NC(=O)[C@H](Cc1c[nH]c2ccccc12)NC(=O)[C@H](CCCNC(=N)N)NC(=O)[C@@H](NC(=O)[C@H](CCCCN)NC(=O)[C@H](Cc1c[nH]c2ccccc12)NC(=O)[C@H](CCCNC(=N)N)NC(=O)[C@H](CC(C)C)NC(=O)[C@H](Cc1c[nH]c2ccccc12)NC(=O)[C@@H](N)CCCNC(=N)N)[C@@H](C)O)C(=O)N[C@@H](CCCCN)C(N)=O (H-RWLRWKTRWRLK-NH2)
Result string: 16 µM

Query string: Returns the measured MIC for the input compound. Input: N=C(N)NCCC[C@H](NC(=O)[C@H](Cc1ccccc1)NC(=O)[C@H](CCCNC(=N)N)NC(=O)[C@H](Cc1c[nH]c2ccccc12)NC(=O)[C@H](CCCNC(=N)N)NC(=O)[C@H](Cc1ccccc1)NC(=O)[C@H](CCCNC(=N)N)NC(=O)[C@H](Cc1c[nH]c2ccccc12)NC(=O)[C@H](CCCNC(=N)N)NC(=O)[C@H](Cc1ccccc1)NC(=O)[C@H](CCCNC(=N)N)NC(=O)[C@@H](N)Cc1c[nH]c2ccccc12)C(N)=O (H-WRFRWRFRWRFR-NH2)
Result string: 1 µM
